# target.desc: Inhibitor of nuclear factor kappa-B kinase subunit alpha (Homo sapiens);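 also: mean percent inhibition from GSK PKIS profiling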
# Sequence (whole entry): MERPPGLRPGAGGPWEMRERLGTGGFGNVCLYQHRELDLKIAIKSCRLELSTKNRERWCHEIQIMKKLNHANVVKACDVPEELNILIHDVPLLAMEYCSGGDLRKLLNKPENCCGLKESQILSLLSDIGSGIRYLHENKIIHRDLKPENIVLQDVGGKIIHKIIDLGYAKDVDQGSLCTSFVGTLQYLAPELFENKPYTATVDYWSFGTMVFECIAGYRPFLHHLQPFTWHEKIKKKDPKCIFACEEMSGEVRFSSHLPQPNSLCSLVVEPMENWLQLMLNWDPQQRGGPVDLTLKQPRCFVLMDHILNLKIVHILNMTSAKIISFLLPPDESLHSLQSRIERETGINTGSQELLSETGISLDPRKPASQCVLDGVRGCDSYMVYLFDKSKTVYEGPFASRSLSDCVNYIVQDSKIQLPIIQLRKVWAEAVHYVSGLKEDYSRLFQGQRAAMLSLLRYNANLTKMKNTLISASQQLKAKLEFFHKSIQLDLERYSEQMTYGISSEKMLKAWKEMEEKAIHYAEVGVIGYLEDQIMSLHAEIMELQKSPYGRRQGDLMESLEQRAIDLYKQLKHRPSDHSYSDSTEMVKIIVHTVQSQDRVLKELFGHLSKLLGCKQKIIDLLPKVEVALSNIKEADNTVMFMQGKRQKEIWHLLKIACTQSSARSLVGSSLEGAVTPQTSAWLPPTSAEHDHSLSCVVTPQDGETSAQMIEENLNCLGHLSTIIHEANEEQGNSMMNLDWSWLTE
# condition.details: at 0.1 µM
inhibition for assorted molecules

# entry.smiles, inhibition [%]
rows = [
    ("NC(=O)c1sc(-n2cnc3cc(C(F)(F)F)ccc32)cc1OCc1ccccc1Br", 2.77),
    ("COc1cc(C=NNc2ncnc3c2cnn3Cc2ccccc2)ccc1O", -2.85),
    ("Nc1nonc1-c1nc2cnccc2n1C1CCCCC1", -6.64),
    ("CCn1c(-c2nonc2N)nc2c(C#CC(C)(C)O)nc(O[C@@H](CN)c3ccccc3)cc21", -6.57),
    ("CCn1c(-c2nonc2N)nc2c(C#CC(C)(C)O)ncc(OCC3CCNCC3)c21", 7.05),
    ("NS(=O)(=O)c1ccc(-c2ccc3c(NC(=O)C4CC4)n[nH]c3c2)cc1", 2.81),
    ("Fc1ccc(-c2ncn(C3CCNCC3)c2-c2ccnc(Oc3ccccc3)n2)cc1", -3.14),
]

FYI, the data here is from ChEMBL document CHEMBL1961873.
